Origin of the recorded values: the supplement of paper PMC10127200

# Test system: HEPG2
# MEASUREMENT DESCRIPTION: Euclidean distance of Cell Painting phenotypic profile (signed KS, 77 features) to DMSO centroid (dimensionless distance); 5 or 10 uM (library dependent); higher = stronger phenotypic change vs DMSO (phenoactivity)
# CONDITION DETAILS: 48 h
Structures can show the parent of a compound that is named as a salt.
TEST READOUT: Euclidean distance

[in] What is its Euclidean distance for HEPG2? Entry: Clc1ccc(CCCOCCCN2CCCCC2)cc1 [Pitolisant hydrochloride]
[out] 0.955

[in] What is its Euclidean distance for HEPG2? Entry: Cc1ccc(Nc2nccc(N(C)c3ccc4c(C)n(C)nc4c3)n2)cc1S(N)(=O)=O
[out] 1.93

[in] What is its Euclidean distance for HEPG2? Entry: CC(C)(F)C[C@H](N[C@@H](c1ccc(-c2ccc(S(C)(=O)=O)cc2)cc1)C(F)(F)F)C(=O)NC1(C#N)CC1
[out] 1.37

[in] What is its Euclidean distance for HEPG2? Entry: COc1cc2ncnc(Nc3ccc(O)c(Br)c3)c2cc1OC
[out] 1.64

[in] What is its Euclidean distance for HEPG2? Entry: O=C(NCc1ccncc1)C12CC3CC(C1)CC(c1ccc(Cl)cc1)(C3)C2
[out] 0.955

[in] What is its Euclidean distance for HEPG2? Entry: CCOC(=O)c1ccc(N2NC(=O)C(=Cc3ccc([N+](=O)[O-])o3)C2=O)cc1
[out] 0.851

[in] What is its Euclidean distance for HEPG2? Entry: N[C@@H](CCC(=O)N[C@@H](CS)C(=O)NCC(=O)O)C(=O)O
[out] 0.978

[in] What is its Euclidean distance for HEPG2? Entry: CCOC(=O)C1=C(COCCN)NC(C)=C(C(=O)OC)C1c1ccccc1Cl (stereo not drawn) [Amlodipine]
[out] 1.06

[in] What is its Euclidean distance for HEPG2? Entry: COc1cc2ncnc(Nc3ccc(Cl)cc3F)c2cc1OC
[out] 1.51

[in] What is its Euclidean distance for HEPG2? Entry: CCCC(=O)Nc1ncnc2c1ncn2[C@@H]1O[C@@H]2COP(=O)(O)O[C@H]2[C@H]1OC(=O)CCC
[out] 0.883

[in] What is its Euclidean distance for HEPG2? Entry: CCCCC(C)(O)C/C=C/[C@H]1[C@H](O)CC(=O)[C@@H]1CCCCCCC(=O)OC (mixture of isomers)
[out] 0.553

[in] What is its Euclidean distance for HEPG2? Entry: COc1nc(C)cnc1NS(=O)(=O)c1cccnc1-c1ccc(-c2nnco2)cc1 [Zibotentan (ZD4054)]
[out] 1.11

[in] What is its Euclidean distance for HEPG2? Entry: CCN1C(=O)NC(c2ccccc2)C1=O (stereo not drawn)
[out] 0.528

[in] What is its Euclidean distance for HEPG2? Entry: Cc1c(OCC(F)(F)F)ccnc1C[S+]([O-])c1nc2ccccc2[nH]1 (stereo not drawn)
[out] 1.08

[in] What is its Euclidean distance for HEPG2? Entry: C[C@H](Oc1cc(-c2cnn(C3CCNCC3)c2)cnc1N)c1c(Cl)ccc(F)c1Cl [(S)-crizotinib]
[out] 3.67

[in] What is its Euclidean distance for HEPG2? Entry: CC(C)NCC(O)c1ccc(O)c(O)c1 (stereo not drawn) [Isoproterenol sulfate dihydrate]
[out] 0.763

[in] What is its Euclidean distance for HEPG2? Entry: Cn1cc(-c2ccc3nnc(C(F)(F)c4ccc5ncccc5c4)n3n2)cn1
[out] 0.706

[in] What is its Euclidean distance for HEPG2? Entry: CCC[C@@H]1C[C@@H](C(=O)N[C@@H]([C@H]2O[C@H](SC)[C@H](O)[C@@H](O)[C@H]2O)[C@@H](C)O)N(C)C1 [Lincomycin HCl]
[out] 0.457

###

# Test system: DU145
# MEASUREMENT DESCRIPTION: Euclidean distance of Cell Painting phenotypic profile (signed KS, 77 features) to DMSO centroid (dimensionless distance); 5 or 10 uM (library dependent); higher = stronger phenotypic change vs DMSO (phenoactivity)
# CONDITION DETAILS: 48 h
Counter-ions that a name gives are not always drawn.
The threshold is inclusive: Euclidean distance of exactly 1 counts as Yes; values below receive No.

[in] Check this compound for Euclidean distance at or above 1: CC1(C)CCC(CN2CCN(c3ccc(C(=O)NS(=O)(=O)c4ccc(NCC5CCOCC5)c([N+](=O)[O-])c4)c(Oc4cnc5[nH]ccc5c4)c3)CC2)=C(c2ccc(Cl)cc2)C1
[out] Yes

[in] Check this compound for Euclidean distance at or above 1: Cc1cnc(Nc2ccc(N3CCN(C)CC3)cc2)nc1Nc1cccc(S(=O)(=O)NC(C)(C)C)c1
[out] Yes

[in] Check this compound for Euclidean distance at or above 1: CC1(C)CCC2=C(O1)c1ccccc1C(=O)C2=O
[out] Yes

[in] Check this compound for Euclidean distance at or above 1: O=C(Nc1cc(Cl)cc(Cl)c1O)c1c(O)c(Cl)cc(Cl)c1Cl [Oxyclozanide]
[out] No

[in] Check this compound for Euclidean distance at or above 1: COc1ccc(C2=N[C@@H](c3ccc(Cl)cc3)[C@@H](c3ccc(Cl)cc3)N2C(=O)N2CCNC(=O)C2)c(OC(C)C)c1
[out] Yes

[in] Check this compound for Euclidean distance at or above 1: COc1ccc2[nH]c([S+]([O-])Cc3ncc(C)c(OC)c3C)nc2c1 (stereo not drawn) [Omeprazole]
[out] Yes

[in] Check this compound for Euclidean distance at or above 1: CC(=O)SCC(Cc1ccccc1)C(=O)NCC(=O)OCc1ccccc1 (stereo not drawn)
[out] No

[in] Check this compound for Euclidean distance at or above 1: CC(C)(C)NCC(O)c1ccc(O)c(CO)c1 (stereo not drawn) [Salbutamol Sulfate]
[out] Yes

[in] Check this compound for Euclidean distance at or above 1: Cc1ccc(Nc2c(F)cccc2Cl)c(CC(=O)O)c1
[out] No

[in] Check this compound for Euclidean distance at or above 1: CN(C)C1CCN(C(=O)c2ccc(NC(=O)Nc3ccc(-c4nc(N5CCOCC5)nc(N5CCOCC5)n4)cc3)cc2)CC1
[out] Yes

[in] Check this compound for Euclidean distance at or above 1: CCOC(=O)C1=C(C)NC(C)=C(C(=O)OCC)C1c1ccccc1/C=C/C(=O)OC(C)(C)C
[out] Yes

[in] Check this compound for Euclidean distance at or above 1: CCN1CCCC1CNC(=O)c1cc(S(=O)(=O)CC)c(N)cc1OC (stereo not drawn) [Amisulpride]
[out] Yes

[in] Check this compound for Euclidean distance at or above 1: COc1cc(Nc2c(C#N)cnc3cc(OCCCN4CCN(C)CC4)c(OC)cc23)c(Cl)cc1Cl [Bosutinib (SKI-606)]
[out] Yes

[in] Check this compound for Euclidean distance at or above 1: NCC[C@H](O)C(=O)N[C@@H]1C[C@H](N)[C@@H](O[C@H]2O[C@H](CN)[C@@H](O)[C@H](O)[C@H]2O)[C@H](O)[C@H]1O[C@H]1O[C@H](CO)[C@@H](O)[C@H](N)[C@H]1O [Amikacin disulfate]
[out] No

[in] Check this compound for Euclidean distance at or above 1: CN(C)N(C)C(=O)[C@@]1(Cc2ccccc2)CCCN(C(=O)[C@@H](Cc2c[nH]c3ccccc23)NC(=O)C(C)(C)N)C1
[out] No

[in] Check this compound for Euclidean distance at or above 1: C=CC(=O)Nc1cccc(Nc2nc(Nc3ccc(Oc4ccnc(C(=O)NC)c4)cc3)ncc2F)c1
[out] Yes

[in] Check this compound for Euclidean distance at or above 1: OC[C@H]1O[C@@H](OCCc2ccc(O)cc2)[C@H](O)[C@@H](O)[C@@H]1O [Salidroside]
[out] No

[in] Check this compound for Euclidean distance at or above 1: Oc1cc(O)c(Cl)cn1
[out] Yes

[in] Check this compound for Euclidean distance at or above 1: O=C(Nc1cccc(Cl)c1)c1ccccn1
[out] No

[in] Check this compound for Euclidean distance at or above 1: O=C(O)c1ccc(CN2CCC(CN[C@@H]3C[C@H]3c3ccccc3)CC2)cc1
[out] No

[in] Check this compound for Euclidean distance at or above 1: CO/N=C(\C(=O)N[C@@H]1C(=O)N2C(C(=O)OC(C)OC(C)=O)=C(COC(N)=O)CS[C@H]12)c1ccco1 (stereo partly drawn)
[out] No

[in] Check this compound for Euclidean distance at or above 1: CCOc1ccc(Cc2cc([C@]34OC[C@](CO)(O3)[C@@H](O)[C@H](O)[C@H]4O)ccc2Cl)cc1
[out] Yes

[in] Check this compound for Euclidean distance at or above 1: COc1cccc(Nc2c(C(N)=O)cnc3c(C)cc(S(=O)(=O)c4cccc(C(=O)N(C)C)c4)cc23)c1
[out] Yes

[in] Check this compound for Euclidean distance at or above 1: NC1(Cc2ccc(Cl)cc2)CCN(c2ncnc3[nH]ccc23)CC1
[out] Yes

[in] Check this compound for Euclidean distance at or above 1: CN(C)CCC(c1ccc(Br)cc1)c1ccccn1 (stereo not drawn) [Brompheniramine hydrogen maleate]
[out] Yes

[in] Check this compound for Euclidean distance at or above 1: CCCOc1ccc(S(=O)(=O)NCCC2CCCN2C)cc1-c1nc2c(CCC)nn(C)c2c(=O)[nH]1 (stereo not drawn)
[out] Yes

[in] Check this compound for Euclidean distance at or above 1: Cc1[nH]c(=O)c(C#N)cc1-c1ccncc1
[out] No

[in] Check this compound for Euclidean distance at or above 1: CN(C)CCCOc1nn(Cc2ccccc2)c2ccccc12 [Benzydamine HCl]
[out] Yes

[in] Check this compound for Euclidean distance at or above 1: Cc1cc(C(=O)NOCCO)c(Nc2ccc(I)cc2F)n(C)c1=O
[out] Yes

[in] Check this compound for Euclidean distance at or above 1: O=C(c1ccc(F)c(F)c1Nc1ccc(I)cc1F)N1CC(O)([C@@H]2CCCCN2)C1
[out] Yes

[in] Check this compound for Euclidean distance at or above 1: CC(C)(Oc1ccc(CCNC(=O)c2ccc(Cl)cc2)cc1)C(=O)O [Bezafibrate]
[out] No

[in] Check this compound for Euclidean distance at or above 1: CN(C)c1ccc(C(=C2C=CC(=[N+](C)C)C=C2)c2ccc(N(C)C)cc2)cc1
[out] Yes

[in] Check this compound for Euclidean distance at or above 1: C#Cc1cccc(Nc2ncnc3cc(OCCOC)c(OCCOC)cc23)c1
[out] Yes
